- Test system: Erysiphae graminis
- experiment: Fungicidal activity against barley powdery mildew (BPM) disease, control value
- Assay type: in vivo
- cond: Hordeum vulgare, 168 h; 2 ppm, barley powdery mildew; read-out: BPM control value (C.V.)
measurement.kind: pest or weed control at 2 ppm
Put down the number, then write its unit next to it.

Some solved cases for reference:
mol.smiles	target.desc	pest or weed control at 2 ppm
CNC(=O)/C(=N/OC)c1ccccc1COc1ccc(C=C(Cl)Cl)cc1C	Erysiphae graminis	100%
CNC(=O)/C(=N/OC)c1ccccc1COc1ccc(C=C(Cl)Br)cc1	Erysiphae graminis	95%
CO/N=C(/C(=O)OC)c1ccccc1COc1ccc(C=C(Cl)Cl)cc1C	Erysiphae graminis	100%

Specify pest or weed control at 2 ppm for CO/N=C(/C(=O)OC)c1ccccc1COc1c(OC)ccc(C=C(Cl)Cl)c1Br and stop.
100%

Specify pest or weed control at 2 ppm for CNC(=O)/C(=N/OC)c1ccccc1COc1cccc(C=C(Cl)Br)c1 and stop.
100%

###

- System: Phytophthora infestans
- experiment: whole plant or invertebrate
- Format: in vivo
- cond: 100 ppm, tomato late blight
measurement.kind: TLB control value (C.V.) (%)
Expressed in %, but write only the number.

Some solved cases for reference:
compound	units.text	TLB control value (C.V.)
CNC(=O)/C(=N/OC)c1ccccc1CON=C(C)c1ccc(C=C(Cl)Br)cc1 [Example 38]	%	100
CO/N=C(/C(=O)OC)c1ccccc1CON=C(C)c1ccc(C=C(Cl)Br)cc1 [Example 37]	%	100
CO/N=C(/C(=O)OC)c1ccccc1CON=C(C)c1cccc(C=C(Cl)Cl)c1 [Example 19]	%	100

Answer briefly: TLB control value (C.V.) recorded on Phytophthora infestans for CNC(=O)/C(=N/OC)c1ccccc1CON=C(C)c1ccc(C=C(Br)Br)cc1 [Example 26]
100

Answer briefly: TLB control value (C.V.) recorded on Phytophthora infestans for CO/N=C(/C(=O)OC)c1ccccc1CON=C(C)c1cccc(C=C(Cl)Br)c1 [Example 35]
100

Answer briefly: TLB control value (C.V.) recorded on Phytophthora infestans for CNC(=O)/C(=N/OC)c1ccccc1CON=C(C)c1cccc(C=C(F)Cl)c1 [Example 32]
93

Answer briefly: TLB control value (C.V.) recorded on Phytophthora infestans for CO/N=C(/C(=O)OC)c1ccccc1CON=C(C)c1cccc(C=C(F)Cl)c1 [Example 31]
60

Answer briefly: TLB control value (C.V.) recorded on Phytophthora infestans for CNC(=O)/C(=N/OC)c1ccccc1CON=C(C)c1cccc(C=C(Cl)Cl)c1 [Example 20]
100

Answer briefly: TLB control value (C.V.) recorded on Phytophthora infestans for CO/N=C(/C(=O)OC)c1ccccc1CON=C(C)c1ccc(C=C(F)F)cc1 [Example 29]
100

Answer briefly: TLB control value (C.V.) recorded on Phytophthora infestans for CNC(=O)/C(=N/OC)c1ccccc1CON=C(C)c1ccc(C=C(Cl)Cl)cc1 [Example 22]
100

Answer briefly: TLB control value (C.V.) recorded on Phytophthora infestans for CNC(=O)/C(=N/OC)c1ccccc1CON=C(C)c1cccc(C=C(Br)Br)c1 [Example 24]
50

Answer briefly: TLB control value (C.V.) recorded on Phytophthora infestans for CNC(=O)/C(=N/OC)c1ccccc1CON=C(C)c1cccc(C=C(F)F)c1 [Example 28]
60

Answer briefly: TLB control value (C.V.) recorded on Phytophthora infestans for CO/N=C(/C(=O)OC)c1ccccc1CON=C(C)c1cccc(C=C(Br)Br)c1 [Example 23]
93

Answer briefly: TLB control value (C.V.) recorded on Phytophthora infestans for CNC(=O)/C(=N/OC)c1ccccc1CON=C(C)c1ccc(C=C(F)Cl)cc1 [Example 34]
98

Answer briefly: TLB control value (C.V.) recorded on Phytophthora infestans for CO/N=C(/C(=O)OC)c1ccccc1CON=C(C)c1ccc(C=C(Cl)Cl)cc1 [Example 21]
98

Answer briefly: TLB control value (C.V.) recorded on Phytophthora infestans for CO/N=C(/C(=O)OC)c1ccccc1CON=C(C)c1ccc(C=C(Br)Br)cc1 [Example 25]
100

###

- Tested on: Phytophthora infestans
- experiment: whole plant or invertebrate
- Type: in vivo
- cond: Phytophthora infestans, in Solanum lycopersicum, read-out: TLB control value (C.V.)
This section presents compounds with their documented pest or weed control at 100 ppm values.

Some solved cases for reference:
mol.smiles	target.desc	measured.value
CNC(=O)/C(=N/OC)c1ccccc1COc1cccc(C=C(Cl)Br)c1	Phytophthora infestans	100%
CNC(=O)/C(=N/OC)c1ccccc1COc1ccc(C=C(Br)Br)c(Cl)c1	Phytophthora infestans	90%
CNC(=O)/C(=N/OC)c1ccccc1COc1cccc(C=C(Br)Br)c1Cl	Phytophthora infestans	100%
CNC(=O)/C(=N/OC)c1ccccc1COc1ccc(C=C(Cl)Cl)cc1	Phytophthora infestans	100%

Field: next compound
Specify pest or weed control at 100 ppm for CO/N=C(/C(=O)OC)c1ccccc1COc1cc(Br)ccc1C=C(Cl)Cl and stop.
100%

###

This section presents molecules with their documented BPM control value (C.V.) values.
- Test system: Erysiphae graminis
- experiment: Fungicidal activity against barley powdery mildew (BPM) disease, control value
- Type: in vivo
- cond: 10 ppm, barley powdery mildew
Expressed in %, but write only the number.

Some solved cases for reference:
molecule	measured.value
CO/N=C(/C(=O)OC)c1ccccc1CON=C(C)c1ccc(C=C(F)F)cc1 [Example 29]	60
CO/N=C(/C(=O)OC)c1ccccc1CON=C(C)c1ccc(C=C(Cl)Cl)cc1 [Example 21]	50
CO/N=C(/C(=O)OC)c1ccccc1CON=C(C)c1ccc(C=C(Cl)Br)cc1 [Example 37]	90
CO/N=C(/C(=O)OC)c1ccccc1CON=C(C)c1ccc(C=C(Br)Br)cc1 [Example 25]	100
CNC(=O)/C(=N/OC)c1ccccc1CON=C(C)c1ccc(C=C(Cl)Cl)cc1 [Example 22]	100
CNC(=O)/C(=N/OC)c1ccccc1CON=C(C)c1cccc(C=C(Cl)Cl)c1 [Example 20]	100

Field: next molecule
Specify BPM control value (C.V.) for CNC(=O)/C(=N/OC)c1ccccc1COc1c(OC)ccc(C=C(Cl)Cl)c1Br [Example 52] and stop.
100

###

- Test system: Puccinia recondita
- experiment: Fungicidal activity against wheat leaf rust (WLR) disease, control value
- Type: in vivo
- cond: 2 ppm, wheat leaf rust; read-out: WLR control value (C.V.)
This section presents compounds with their documented pest or weed control at 2 ppm values.
Put down the number, then write its unit next to it.

mol.smiles	target.desc	pest or weed control at 2 ppm
CO/N=C(/C(=O)OC)c1ccccc1COc1cccc(C=C(Cl)Cl)c1	Puccinia recondita	98%
CO/N=C(/C(=O)OC)c1ccccc1COc1ccc(C=C(Cl)Br)cc1	Puccinia recondita	100%
CNC(=O)/C(=N/OC)c1ccccc1COc1c(C)cccc1C=C(Cl)Cl	Puccinia recondita	100%

Specify pest or weed control at 2 ppm for CO/N=C(/C(=O)OC)c1ccccc1COc1ccc(C)cc1C=C(Cl)Cl and stop.
100%

Specify pest or weed control at 2 ppm for CO/N=C(/C(=O)OC)c1ccccc1COc1ccc(C=C(Cl)Cl)cc1 and stop.
40%

###

This section presents compounds with their documented pest or weed control at 50 ppm values.
- System: Phytophthora infestans
- experiment: whole plant or invertebrate
- Format: in vivo
- cond: Phytophthora infestans, in Solanum lycopersicum, read-out: TLB control value (C.V.)
Expressed in %, but write only the number.

Some solved cases for reference:
compound	pest or weed control at 50 ppm / %
CO/N=C(/C(=O)OC)c1ccccc1COc1ccccc1C [Kresoxim-methyl, reference compound]	100
CO/N=C(/C(=O)OC)c1ccccc1COc1ccc(C=C(Br)Br)cc1	100
CNC(=O)/C(=N/OC)c1ccccc1COc1ccc(C=C(Br)Br)cc1C	98

Specify pest or weed control at 50 ppm for CO/N=C(/C(=O)OC)c1ccccc1COc1ccc(C=C(Br)Br)cc1Cl and stop.
100

###

This section presents compounds with their documented pest or weed control at 50 ppm values.
- Tested on: Phytophthora infestans
- experiment: whole plant or invertebrate
- Type: in vivo
- cond: Phytophthora infestans, in Solanum lycopersicum, read-out: TLB control value (C.V.)
Expressed in %, but write only the number.

compound	pest or weed control at 50 ppm / %
CNC(=O)/C(=N/OC)c1ccccc1COc1cc(Br)ccc1C=C(Br)Br [Example 86]	98
CNC(=O)/C(=N/OC)c1ccccc1COc1cc(Br)ccc1C=C(Cl)Cl [Example 62]	100
CCOc1cc(C=C(Br)Br)ccc1OCc1ccccc1/C(=N\OC)C(=O)OC [Example 83]	98
CNC(=O)/C(=N/OC)c1ccccc1COc1cccc(C=C(Cl)Br)c1 [Example 16]	100

Answer briefly: pest or weed control at 50 ppm recorded on Phytophthora infestans for CO/N=C(/C(=O)OC)c1ccccc1COc1c(C)cccc1C=C(Br)Br [Example 73]
90

Answer briefly: pest or weed control at 50 ppm recorded on Phytophthora infestans for CO/N=C(/C(=O)OC)c1ccccc1COc1cccc(C=C(Cl)Cl)c1Cl [Example 43]
100

Answer briefly: pest or weed control at 50 ppm recorded on Phytophthora infestans for CNC(=O)/C(=N/OC)c1ccccc1COc1c(C)cccc1C=C(Cl)Cl [Example 50]
100

Answer briefly: pest or weed control at 50 ppm recorded on Phytophthora infestans for CO/N=C(/C(=O)OC)c1ccccc1COc1ccc(C=C(Br)Br)cc1Br [Example 77]
98

Answer briefly: pest or weed control at 50 ppm recorded on Phytophthora infestans for CNC(=O)/C(=N/OC)c1ccccc1COc1ccc(C=C(Br)Br)cc1Cl [Example 64]
100
